# Target of assay: gelatinase A catalytic domain (MMP02)
# Assay method text: Thiopeptolide assay, gelatinase A catalytic domain (GCD, MMP02)
# Format: biochemical
# Condition: Tables 2, 3, 5, 7; read-out: IC50 MMP-2CD
Measurement label: IC50 (nM)
Your answer should be a plain number; it is taken to be in nM.

Example entries and their recorded answers appear below.
O=C(CCC(NS(=O)(=O)c1ccc2oc3ccccc3c2c1)C(=O)O)NCC(c1ccccc1)c1ccccc1 (centres unmarked); 700
O=C(O)C(CCCCNC(=S)NCc1ccccc1)NS(=O)(=O)c1ccc2oc3ccccc3c2c1 (centres unmarked); 1200

Indicate its recorded IC50; the molecule in question is COc1ccc(CCC(=O)NCCCCC(NS(=O)(=O)c2ccc3oc4ccccc4c3c2)C(=O)O)cc1 (centres unmarked) 700

// Input: O=C(O)C(CCCCNS(=O)(=O)c1ccccc1)NS(=O)(=O)c1ccc2oc3ccccc3c2c1 (centres unmarked) . Output its IC50 only. 1400

For CCC(Oc1ccccc1)C(=O)NCCCCC(NS(=O)(=O)c1ccc2oc3ccccc3c2c1)C(=O)O (centres unmarked) , write its IC50. 1500

From: patent US6294674A
